Biological target: CRAC channel (endogenous SOC in HEK293 cells) (Homo sapiens)
Construct: host or cells: HEK293
Assay: HEK Calcium Influx Assay (FLIPR)
Assay type: cell-based
Conditions: 10 μM compound, thapsigargin store depletion, Ca2+ signal 9.5-10 min post-administration, read-out: % inhib. [@ 10 μM] FLIPR
# inhibition at 10 µM per record follows
quantity: inhibition at 10 µM

compound="Cn1nc(C(=O)Nc2ccncc2F)cc1-c1cc(-c2ncco2)ccc1OC(F)(F)F [Example 31]" observed="50 to 70%"
compound="Cc1ccc(-c2ccnc(N)c2)cc1-c1cc(C(=O)Nc2c(F)cccc2F)nn1C [Example 20]" observed="50 to 70%"
compound="Cc1ccc(-c2nccs2)cc1-c1cc(C(=O)Nc2c(F)cccc2F)nn1C [Example 3]" observed="< 50%"
compound="COc1ccc(C2CC2)cc1-c1c(C)c(C(=O)Nc2c(F)cccc2F)nn1C [Example 34]" observed="> 70%"
compound="Cn1nc(C(=O)Nc2c(F)cncc2F)cc1-c1cc(-c2ncco2)ccc1OC(F)(F)F [Example 33]" observed="50 to 70%"
compound="Cc1cnc(C2CC2)nc1-c1cc(C(=O)Nc2c(F)cccc2F)nn1C [Example 17]" observed="50 to 70%"
compound="Cc1ccc(-c2ncco2)cc1-c1c(N)c(C(=O)Nc2c(F)cncc2F)nn1C [Example 43]" observed="< 50%"
compound="Cc1cnccc1NC(=O)c1cc(-c2cc(-c3nccs3)ccc2C)n(C)n1 [Example 6]" observed="50 to 70%"

* * *

Molecular target: CRAC channel (endogenous SOC in HEK293 cells) (Homo sapiens, UniProt Q96D31)
Construct: host or cells: HEK293
Sequence (Q96D31 whole entry): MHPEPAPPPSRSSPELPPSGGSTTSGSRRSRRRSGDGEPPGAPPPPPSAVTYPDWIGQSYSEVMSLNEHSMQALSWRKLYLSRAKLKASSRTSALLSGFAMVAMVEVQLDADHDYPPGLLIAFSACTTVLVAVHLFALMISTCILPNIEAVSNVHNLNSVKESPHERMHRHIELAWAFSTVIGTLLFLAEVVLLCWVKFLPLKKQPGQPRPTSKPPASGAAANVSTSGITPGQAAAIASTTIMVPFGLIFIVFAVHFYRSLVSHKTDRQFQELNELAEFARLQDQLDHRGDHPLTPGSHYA
Assay: HEK Calcium Influx Assay (FLIPR)
Type: cell-based
Conditions: 10 μM compound, thapsigargin store depletion, Ca2+ signal 9.5-10 min post-administration, read-out: % inhib. [@ 10 μM] FLIPR
quantity: inhibition at 10 µM

smiles_data=COc1ccc(C2CC2)cc1-c1cc(C(=O)Nc2ccncc2F)nn1C observed="> 70%"
smiles_data=Cn1nc(C(=O)Nc2c(F)cncc2F)cc1-c1cc(C2CC2)ccc1OC(F)(F)F observed="> 70%"
smiles_data=COc1ccc(-c2ncco2)cc1-c1c(N)c(C(=O)Nc2c(F)cccc2F)nn1C observed="< 50%"
smiles_data=Cn1nc(C(=O)Nc2ccncc2F)cc1-c1ccc(C2CC2)cc1OC(F)(F)F observed="> 70%"
smiles_data=Cc1ccc(-c2nccs2)cc1-c1cc(C(=O)Nc2ccc(F)cc2)nn1C observed="50 to 70%"
smiles_data=Cc1ccc(-c2ncn(C)n2)cc1-c1cc(C(=O)Nc2c(F)cccc2F)nn1C observed="< 50%"
smiles_data=Cc1ccc(-c2ccncc2)cc1-c1cc(C(=O)Nc2c(F)cccc2F)nn1C observed="> 70%"
smiles_data=Cc1ccc(-c2ncco2)cc1-c1cc(C(=O)Nc2c(F)cccc2F)nn1C observed="< 50%"
smiles_data=Cn1nc(C(=O)Nc2c(F)cccc2F)c(N)c1-c1cc(-c2ncco2)ccc1OC(F)(F)F observed="50 to 70%"
smiles_data=Cn1nc(C(=O)Nc2c(F)cccc2F)cc1-c1cc(-c2nccs2)ccc1Cl observed="< 50%"
smiles_data=COc1ccc(C2CC2)cc1-c1cc(C(=O)Nc2c(F)cccc2F)nn1C observed="> 70%"
smiles_data=Cc1ccc(-c2cncnc2)cc1-c1cc(C(=O)Nc2c(F)cccc2F)nn1C observed="< 50%"
smiles_data=Cc1ccc(-c2nnc[nH]2)cc1-c1cc(C(=O)Nc2c(F)cccc2F)nn1C observed="< 50%"
smiles_data=Cc1ccc(-c2nccs2)cc1-c1c(C)c(C(=O)Nc2ccncc2F)nn1C observed="< 50%"
smiles_data=Cc1nnc(-c2ccc(C)c(-c3cc(C(=O)Nc4c(F)cccc4F)nn3C)c2)[nH]1 observed="< 50%"
smiles_data=Cc1ccc(-c2ncco2)cc1-c1cc(C(=O)Nc2ccncc2F)nn1C observed="50 to 70%"
smiles_data=Cc1noc(-c2ccc(C)c(-c3cc(C(=O)Nc4c(F)cccc4F)nn3C)c2)n1 observed="< 50%"
smiles_data=COc1ccc(-c2nccs2)cc1-c1cc(C(=O)Nc2c(F)cccc2F)nn1C observed="> 70%"
